# Target Under Test: IDO1 (Homo sapiens)
# Assay Procedure: IDO1 Cellular Assay in HeLa Cells Stimulated with IFNγ
# Type: cell-based
# Setup Conditions: IFNγ 100 ng/mL, 300 uM L-tryptophan, about 48 hours, read-out: IDO HeLa Cell Assay, IC50
Reported Property: IC50 (nM)

Prompt: Query: IC50; subject: Cc1cccc(NC(=O)c2ccc(C3(c4nc5ncc(C#N)cc5[nH]4)CC(F)(F)C3)cc2)n1 [Example 29]
Response: 590

P: CC(C)CNC(=O)c1ccc(C2(c3nc4ncc(C(F)(F)F)cc4[nH]3)CCC2)cc1 [Example 35]
Q: O=C(Nc1ccc(C2(c3nc4ncccc4[nH]3)CCC2)cc1)c1cccc(Cl)c1 [Example 5]
R: N#Cc1cccc(C(=O)Nc2ccc(C3(c4nc5cc(C#N)cnc5[nH]4)CCC3)cc2C#N)c1 [Example 14]
Prompt: Output the entries ranked by IC50 from maximum down to minimum. Put the labels in the requested order and list them out.
Response: R, P, Q

* * *

# Target Under Test: IDO1 (Homo sapiens, UniProt P14902)
# Sequence (P14902 whole entry): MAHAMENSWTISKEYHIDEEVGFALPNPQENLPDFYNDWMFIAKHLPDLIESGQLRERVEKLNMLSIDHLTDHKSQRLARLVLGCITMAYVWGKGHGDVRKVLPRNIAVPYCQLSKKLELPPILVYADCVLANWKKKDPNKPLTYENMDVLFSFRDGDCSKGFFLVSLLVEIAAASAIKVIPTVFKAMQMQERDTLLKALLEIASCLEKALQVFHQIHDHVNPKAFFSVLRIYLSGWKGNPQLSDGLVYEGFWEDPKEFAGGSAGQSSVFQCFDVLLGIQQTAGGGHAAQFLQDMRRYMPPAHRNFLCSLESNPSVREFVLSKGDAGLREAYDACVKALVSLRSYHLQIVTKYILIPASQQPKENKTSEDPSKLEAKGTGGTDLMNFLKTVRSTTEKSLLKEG
# Assay Procedure: IDO1 Human Whole Blood Assay
# Format: cell-based
# Parameters: Human whole blood was drawn in sodium heparin coated tubes from healthy internal donors; from tissue; host or cells: Human whole blood from healthy donors, stimulated with LPS and IFNγ
# Setup Conditions: LPS and IFNγ 100 ng/mL, 18 h, kynurenine by LC/MS/MS
# Description: IDO1 Human Whole Blood Assay Compounds to be tested were serially diluted in ten 3-fold steps in DMSO starting from 10 mM. […] On day 2, isotope labeled standard solutions of kunurenine and tryptophan was made in water at 10× concentration and 30 µL was added to the blood at 3 µM final concentration. […] 20 µL of supernatant was carefully transferred to a 384 well plate containing 40 µL of 0.1% formic acid in water and analyzed by LC/MS/MS. […]
Reported Property: IC50 (nM)

Use the examples below as a reference point.
Prompt: Record N#Cc1cccc(C(=O)Nc2ccc(C3(c4nc5ncc(C#N)cc5[nH]4)CCC3)cc2)c1 [Example 3] : what is its IC50 with IDO1 (Homo sapiens, UniProt P14902)?
Response: 75.1

Prompt: Record O=C(Nc1ccc(C2(c3nc4ncc(C(F)(F)F)cc4[nH]3)CCC2)cc1)c1cccc(Cl)c1 [Example 1] : what is its IC50 with IDO1 (Homo sapiens, UniProt P14902)?
Response: 74.7

Prompt: Record N#Cc1cccc(C(=O)Nc2ccc(C3(c4nc5cc(Cl)cnc5[nH]4)CCC3)cc2F)c1 [Example 18] : what is its IC50 with IDO1 (Homo sapiens, UniProt P14902)?
Response: 103

Prompt: Record Cc1cc(OC(F)F)nc(C)c1-c1ccc(C2(c3nc4cc(Cl)ccc4[nH]3)CCC2)cc1 [Example 48] : what is its IC50 with IDO1 (Homo sapiens, UniProt P14902)?
Response: 130

Prompt: Record OCc1cc(C(F)(F)F)ncc1-c1ccc(C2(c3nc4ccc(Cl)cc4[nH]3)CCC2)cc1 [Example 52] : what is its IC50 with IDO1 (Homo sapiens, UniProt P14902)?
Response: 91

A: N#Cc1cccc(C(=O)Nc2ccc(C3(c4nc5ccc(C#N)cc5[nH]4)CC(F)C3)cc2)c1 (stereo not drawn) [Example 26]
B: N#Cc1cccc(C(=O)Nc2ccc(C3(c4nc5ccc(Cl)cc5[nH]4)CC(F)C3)cc2)c1 (stereo not drawn) [Example 25]
C: N#Cc1cccc(C(=O)Nc2ccc(C3(c4nc5cc(C#N)cnc5[nH]4)CCC3)cc2F)c1 [Example 17]
D: N#Cc1cccc(C(=O)Nc2ccc(C3(c4nc5ccc(Cl)cc5[nH]4)COC3)cc2)c1 [Example 11]
Prompt: Output the entries ranked by IC50 from maximum down to minimum. Put the labels in the requested order and list them out.
Response: A, C, B, D
(A: 182 nM, C: 118 nM, B: 47.6 nM, D: 22.9 nM)

* * *

# Target Under Test: IDO1 (Homo sapiens, UniProt P14902)
# Assay Procedure: IDO1 Human Whole Blood Assay
# Format: cell-based
# Parameters: Human whole blood was drawn in sodium heparin coated tubes from healthy internal donors; from tissue; host or cells: Human whole blood from healthy donors, stimulated with LPS and IFNγ
# Setup Conditions: LPS and IFNγ 100 ng/mL, 18 h, kynurenine by LC/MS/MS
Reported Property: IC50 (nM)

Prompt: Query: IC50; subject: CC(C)(O)c1cc(C(F)(F)F)ncc1-c1ccc(C2(c3nc4cc(Cl)ccc4[nH]3)CCC2)cc1 [Example 49]
Response: 72.9

A: Cc1cc(C2CC2)ncc1-c1ccc(C2(c3nc4ncc(C#N)cc4[nH]3)CCC2)cc1 [Example 39]
B: O=C(Nc1ccc(C2(c3nc4ncc(Cl)cc4[nH]3)CC(F)(F)C2)cc1)c1cccc(Cl)c1 [Example 24]
Prompt: Would you mind telling me which has the lower recorded IC50 between A and B ? Bench note: the answer is the label of the chosen record.
Response: B

* * *

# Target Under Test: IDO1 (Homo sapiens)
# Assay Procedure: IDO1 Human Whole Blood Assay
# Assay type: cell-based
# Set-up: Human whole blood was drawn in sodium heparin coated tubes from healthy internal donors; from tissue; host or cells: Human whole blood from healthy donors, stimulated with LPS and IFNγ
# Setup Conditions: LPS and IFNγ 100 ng/mL, 18 h, kynurenine by LC/MS/MS
Reported Property: IC50 (nM)

Prompt: Query: IC50; subject: `OCc1cc(OC(F)F)ncc1-c1ccc(C2(c3nc4cc(Cl)ccc4[nH]3)CCC2)cc1`
Response: 191

Prompt: Query: IC50; subject: `N#Cc1cccc(C(=O)Nc2ccc(C3(c4nc5ncc(Cl)cc5[nH]4)CCC3)cc2)c1`
Response: 132

Prompt: Query: IC50; subject: `O=C(Nc1cccc(Cl)c1)c1ccc(C2(c3nc4ncc(C(F)(F)F)cc4[nH]3)CCC2)cc1`
Response: 169

Where do the numbers come from? From patent US11208407B2.
